Read-out: Interleukin-8 (IL8), CXCL8 (gene 3576)
Test: BSK_LPS_IL8: BioMAP Diversity Plus: LPS Assay for Interleukin-8 (IL8) Biomarker Activity (AID 2283078)
Conditions: primary human HUVEC with PBMC; actives raise or lower the signal
Procedure: BSK_LPS is a cell-based, multiplexed-readout assay that uses umbilical vein endothelium and peripheral blood mononuclear cells, a human vascular primary cell co-culture, with measurements taken at 24 hours after chemical dosing in a 96-well plate.BSK_LPS_IL8 is an assay component measured in the BSK_LPS assay. It measures IL-8 antibody related to regulation of gene expression using ELISA technology.Data from the assay component BSK_LPS_IL8 was analyzed into 1 assay endpoint. […]
Calls of active or inactive are those of the source. The calls were made as follows: active = hit-call score of the fitted dose curve at least 0.9, where 1 is the maximum; inactive = score below 0.9.
Outcomes: TRUE (active), FALSE (inactive)

| COMPOUND | CLASS LABEL |
| --- | --- |
| CC(=O)S[C@H](C(=O)N[C@H]1Cc2ccccc2[C@H]2CCC[C@@H](C(=O)O)N2C1=O)C(C)C | FALSE |
| CC(C)(C)c1ccccc1 | FALSE |
| COc1ccc(OC(F)(F)F)cc1CN[C@H]1CCCN[C@H]1c1ccccc1 | TRUE |
| CCCCCCCC(=O)OC | FALSE |
| Nc1nc(Cl)nc2c1ncn2[C@H]1C[C@H](O)[C@@H](CO)O1 | TRUE |
| CCCCC(CC)CO (stereo not given) | FALSE |
| CCCCCCC(CCCCCCCCCCC(=O)OCC(COC(C)=O)OC(C)=O)OC(C)=O (stereo not given) | FALSE |
| Cn1cnc2c1c(=O)[nH]c(=O)n2C | FALSE |
| CCC(C)N(C)C(=O)c1cc2ccccc2c(-c2ccccc2Cl)n1 (stereo not given) | FALSE |
| S=c1[nH]c2ccccc2s1 | FALSE |
| COC(=O)[C@H]1[C@H]2C[C@@H]3c4[nH]c5cc(OC)ccc5c4CCN3C[C@H]2C[C@@H](OC(=O)c2cc(OC)c(OC)c(OC)c2)[C@@H]1OC | FALSE |
| CCCCCCC(C=O)=Cc1ccccc1 | TRUE |
| NC(=Nc1ccccc1)Nc1ccccc1 | FALSE |
| CN(C)C(=O)NC1(c2ccccc2)CCN(CC[C@@]2(c3ccc(F)c(F)c3)CN(C(=O)c3ccccc3)CCO2)CC1 | FALSE |
| CN(C)CCCN1c2ccccc2Sc2ccc(Cl)cc21 | TRUE |
| CCCCCCCCCC[N+](C)(C)[O-] | FALSE |
| O=NO | FALSE |
| O=C(O)CC(O)(CC(=O)O)C(=O)O | FALSE |
| COC(=O)CCCC(=O)OC | FALSE |
| O=Cc1ccccc1C=O | FALSE |

====

Read-out: ABC Transporter (ABCB11), ABCB11 (gene 8647)
Assay: LTEA_HepaRG_ABCB11: Life Technologies and Expression Analysis (LTEA) Assay for ABC Transporter (ABCB11) using HepaRG (AID 2283463)
Details: mRNA level, 48 h; actives raise or lower the signal
Activity calls are given as the source filed them. How the source made its calls: active means hit-call score of the fitted dose curve at least 0.9, where 1 is the maximum; inactive means score below 0.9.
Classes used: label 1 for active, label 0 for inactive

| COMPOUND | CLASS LABEL |
| --- | --- |
| CC(=O)S[C@H](C(=O)N[C@H]1Cc2ccccc2[C@H]2CCC[C@@H](C(=O)O)N2C1=O)C(C)C | label 0 |
| Cc1c(C)c2c(c(C)c1O)CCC(C)(COc1ccc(CC3SC(=O)NC3=O)cc1)O2 (stereo not given) | label 1 |
| CCC(C)N(C)C(=O)c1cc2ccccc2c(-c2ccccc2Cl)n1 (stereo not given) | label 0 |
| CCCCOC(=O)CCCCC(=O)OCCCC | label 0 |
| O=Cc1ccccc1C=O | label 0 |

====

Read-out: Cytochrome P450 3A7 (Homo sapiens)
Assay: LTEA_HepaRG_CYP3A7: Life Technologies and Expression Analysis (LTEA) Assay for CYP3A7 using HepaRG (AID 2283492)
Conditions: mRNA level, 48 h; actives raise or lower the signal
Activity calls are given as the source filed them. Rule for the calls: active = hit-call score of the fitted dose curve at least 0.9, where 1 is the maximum; inactive = score below 0.9.
Outcomes: T for active, F for inactive

| COMPOUND | CLASS LABEL |
| --- | --- |
| CCCCCCC(C=O)=Cc1ccccc1 | F |
| C/C=C/c1ccc(OC)cc1 | F |
| CC(C)c1cccc(C(C)C)c1NC(=O)NS(=O)(=O)c1cc(C(C)(C)O)co1 | F |
| C=CCc1ccc(OC)c(OC)c1 | F |
| CCC(C)N(C)C(=O)c1cc2ccccc2c(-c2ccccc2Cl)n1 (centres undefined) | F |
| CC(=O)O | F |
| O=C1O[C@H]([C@H](O)CO)C(O)=C1O | F |
| C#CC(O)C(CC)CCCC (centres undefined) | F |
| CC(N)=O | F |
| CC(C)c1cccc(C(C)C)c1 | F |
| CC(C)(O)c1ccc(CNC(=O)c2cccnc2Oc2ccc(F)cc2)cc1 | T |
| Cc1ccc(C(C)(C)C)c(O)c1 | F |
| O=C(O)c1cccnc1 | F |
| CCCCCCCCCC[N+](C)(C)[O-] | F |
| O=C1c2c(O)cccc2Cc2cccc(O)c21 | F |
| CO[C@@H]1COCC[C@@H]1N[C@@H]1CC[C@@](C(=O)N2CCc3ncc(C(F)(F)F)cc3C2)(C(C)C)C1 | F |
| CC(=O)CC(c1ccccc1)c1c(O)c2ccccc2oc1=O (centres undefined) | T |
| COc1ccc(C(=O)Nc2nc3ccccc3c(NCc3ccccc3)c2C#N)cc1 | T |
| Oc1ccccc1O | F |
| CCCCCCC(CCCCCCCCCCC(=O)OCC(COC(C)=O)OC(C)=O)OC(C)=O (centres undefined) | F |
| CCc1nc(N)nc(N)c1-c1ccc(Cl)cc1 | F |
| OCC(CO)n1cnc(-c2ccc(F)cc2)c1-c1ccnc(Oc2ccccc2)n1 | T |
| CN(C)CCCN(C)CCCN(C)C | F |
| NC=O | F |
| CCCC(=O)O | F |
| CC(=O)O[C@]1(C(C)=O)CC[C@H]2[C@@H]3C=C(Cl)C4=CC(=O)[C@@H]5C[C@@H]5[C@]4(C)[C@H]3CC[C@@]21C | F |
| Oc1ccc(O)cc1 | F |
| CCN(CC)CCOc1ccc(C(=C(Cl)c2ccccc2)c2ccccc2)cc1 | F |
| O=[Si]=O | F |
| c1ccc2occc2c1 | F |
| CCOCCOCCO | F |
| Cc1cn([C@H]2C=C[C@@H](CO)O2)c(=O)[nH]c1=O | F |
| Cc1cc(SC2=C(O)C[C@@](CCc3ccc(N)cc3)(C(C)C)OC2=O)c(C(C)(C)C)cc1CO | T |
| O=C(O)c1[nH]n(-c2ccc(S(=O)(=O)O)cc2)c(=O)c1N=Nc1ccc(S(=O)(=O)O)cc1 | F |

====

Assay: BSK_SAg_SRB: Viability Assessment in the BioMAP Diversity Plus: SAg Assay (AID 2283096);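 also: cells read one day after compound addition; hits may be either gain or loss of signal compared with DMSO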
Details: primary human HUVEC with PBMC
Active and inactive are the calls of the source. How the source made its calls: active means hit-call score of the fitted dose curve at least 0.9, where 1 is the maximum; inactive means score below 0.9.
MEASURED PROPERTY: outcome

| COMPOUND STRUCTURE STRING | RESULT |
| --- | --- |
| NC(=Nc1ccccc1)Nc1ccccc1 | inactive |
| CN(C)C(=O)NC1(c2ccccc2)CCN(CCC[C@]2(c3ccc(Cl)c(Cl)c3)CCCN(C(=O)c3ccccc3)C2)CC1 | inactive |
| CS(=O)(=O)c1ccc([C@@H](C[C@H]2CCC(=O)C2)C(=O)Nc2cnccn2)cc1Cl | inactive |

====

Experiment: APR_HepG2_MitoMembPot_24hr: Apredica 24-hour HepG2 Assay for Mitochondrial Membrane Potential (AID 2282911)
Details: imaging, actives raise or lower the signal
Calls of active or inactive are those of the source. How the source made its calls: active means hit-call score of the fitted dose curve at least 0.9, where 1 is the maximum; inactive means score below 0.9.
Possible outcomes: TRUE (active), FALSE (inactive)

| COMPOUND | CLASS LABEL |
| --- | --- |
| NC(=Nc1ccccc1)Nc1ccccc1 | FALSE |
| Nc1nc(Cl)nc2c1ncn2[C@H]1C[C@H](O)[C@@H](CO)O1 | FALSE |
| CCCCCCCC(=O)OC | FALSE |
| CCCCCCC(C=O)=Cc1ccccc1 | FALSE |
| O=C1c2c(O)cccc2Cc2cccc(O)c21 | TRUE |
| CCC(C)N(C)C(=O)c1cc2ccccc2c(-c2ccccc2Cl)n1 (centres undefined) | FALSE |
| S=c1[nH]c2ccccc2s1 | TRUE |
| c1ccc2occc2c1 | FALSE |
| CO[C@@H]1COCC[C@@H]1N[C@@H]1CC[C@@](C(=O)N2CCc3ncc(C(F)(F)F)cc3C2)(C(C)C)C1 | FALSE |
| C=CCCCCCCCCCCCC | FALSE |
| Cc1ccc(-c2cc(C(F)(F)F)nn2-c2ccc(S(N)(=O)=O)cc2)cc1 | FALSE |
| Nc1nc(=S)c2[nH]cnc2[nH]1 | FALSE |
| Oc1ccc(O)cc1 | FALSE |
| O=C(NS(=O)(=O)/C=C/c1cccs1)c1ccc(F)cc1Br | FALSE |
| O=C(O)c1[nH]n(-c2ccc(S(=O)(=O)O)cc2)c(=O)c1N=Nc1ccc(S(=O)(=O)O)cc1 | FALSE |
| CCCCCCC(CCCCCCCCCCC(=O)OCC(COC(C)=O)OC(C)=O)OC(C)=O (centres undefined) | FALSE |
| CN(C)C(=O)NC1(c2ccccc2)CCN(CC[C@@]2(c3ccc(F)c(F)c3)CN(C(=O)c3ccccc3)CCO2)CC1 | FALSE |
| O=C(O)CC(O)(CC(=O)O)C(=O)O | FALSE |
| COC(=O)CCC(=O)OC | FALSE |
